# assayRemarks: yeast display, Sf9 membrane polyspecificity reagent, FACS + sequencing; frameworks hold sequencing errors
measurementType: polyreactivity (PSR sort gate)

QVQLVESGGGLVQAGGSLRLSCAASGRIFAYYAMEWYRQAPGKERELVAAITRSGARTYYADSVKGRFTISRDNAKNSVYLQMNSLKPEDTAVYYFAAEGVRIGTRYDYWGQGTQVTVSS high polyreactivity
QVQLVESGGGLFQAGGSLRLTCAASGFTFIKYSMGWYRQAPGKEREFVATISWNGGNTYYADSVKGRFTISRDNAKNTVYLQMNSLKPEVTAVYYCAARVKYRTRGGTVVSYDYWGQGTQVTVSS high polyreactivity

###

# assayRemarks: yeast display, Sf9 membrane polyspecificity reagent, FACS + sequencing; frameworks hold sequencing errors
measurementType: polyreactivity (PSR sort gate)

Below, each entry is followed by its recorded polyreactivity (PSR sort gate) result.
QVHLVESGGGLVQAGGSLRLSCAASGRPFSKYTMGWDRQAPGKERELVAVISRSGTRTYYADSVKGRFTISRDNAKNTVYLQMNSLKPEDTAVYYCAAKDERRSFGMGYWGQGTQVTVSS high polyreactivity
QVQLVESGGGLVQAGGSLRLSCAASGGIFDRYAMGWYRQAPGKERELVAAITSGGSTNYADSVKGRFTISRDNAKNTVYLQMISLKPEDTAVYYCNADLGILSGVAEGPTFREYDYWGQGTQVTVSS low polyreactivity
QVQLVESGGGLVQAGGSLRLSCAASGRIFGFNAMGWYRQATGKERELVAAISWRGGSTYYADSVKGRFTISRDNAKNTVYLQMNSLKPEDTAVYYCAAGRYLRSGFGEGYYWGQGTQVTVSS high polyreactivity
QVQLVESGGGLVQAGGSLRLSCAASGATFSYYAMGWYRQAPGKERELVAAISYSGGSTYYADSVKGRFTISRDNAKNTVYLQMNSLKPEDTAVYYCNARDPYYGDPSSLPDTRSRSDYWGQGTQVTVSS low polyreactivity
QVQLVDSGGGLVQAGGSLRLSCAASGIIYRFYAMGWYRQAPAQEREMVAAISSGGSTYYADSVKGRCTISRDTAKNTVYLQINRLKPEDTAVYYCNARVRYKRTGRYGYWGQGTQVTVSS high polyreactivity
QVQLVESGGGLVQAGGSLRLSCAASGGTFIYYAMGWYSQAPGKERELVAAISSGGSTYYADSVKGRFTISRDNAKNTVYLQMNSLKPEDTAVYYCAKRRAVQIVDLEYWRQGTQVTVSS low polyreactivity
QVQLVESGGGLVQAGGSLRLSCAASGSTFPPNAMGWYRQAPGKERELVAVISNGGSNTRYADSVKGRFTISRDIAKNTVYLQMNSLKPEDTAVYYCAADYEYSGYGYWGQGTQVTVSS high polyreactivity
QVQLEESGGGLVQAGGSLRLSCAASGRIFRGNAIAWYRQAPGKERELVASITRGNNTYYADSVKGRFTISRDNAKNTVYLQMNSLKPEDTAVYYCAKRYIYRYYWGQGTQVTVSS high polyreactivity

# input So what does the record say about polyreactivity (PSR sort gate) for QVQLVESGGGLVQAGGSLRLSCAASGRTFSFYDMGWYRQAPGKERELVAAINSGSSTYYADSVKGRFTISRDNANNTVYLQMNSLKPEDTEVYYCAAEPYFWWQNEYWGQGTQVTVSS ?
# output high polyreactivity

# input Can you look up the measured polyreactivity (PSR sort gate) of QVQLVESGGGLVQARGSLRLSFAASGYTLRPNGMGWYRQAPGKERELVAAISSGGSTYYADSVKGRFTISRDNAKNTVYLQLNSLKPEDTAVSYCAAEYWYDYWVQGTQVTVSS for me?
# output low polyreactivity

# input Fill blank: measured polyreactivity (PSR sort gate) of the sequence QVQLVESGGGLVQAGGSLRLSCAASGIIFDTYAMGWYRQAPGKERELVAAISRSGDTTYYADSVKGRFTISRDNAKNTVFLQMNSLKPEDTAVYYCNARQSRWDKYDYWGQGTQVTVSS is ____.
# output high polyreactivity
